system: A549; assay: Cytotoxicity assay (MTT), A549 cell line; assay type: cell-based; details: 50 μM, 24 h
Readings of Percentage of inhibition of cell growth for the listed compounds

Guide cases for Percentage of inhibition of cell growth, answers given:
// assay A549, entry CC[C@H]1OC(=O)[C@H](C)[C@@H](O[C@H]2C[C@@](C)(OC)[C@@H](OC(=O)CCN3CCN(CCN(CC)CC)CC3)[C@H](C)O2)[C@H](C)[C@@H](O[C@@H]2O[C@H](C)C[C@H](N(C)C)[C@H]2O)[C@](C)(OC)C[C@@H](C)C(=O)N[C@H](C)[C@@H](O)[C@]1(C)O [Example 14] , Percentage of inhibition of cell growth value = 0%

// Percentage of inhibition of cell growth (A549) for CC[C@H]1OC(=O)[C@H](C)[C@@H](O[C@H]2C[C@@](C)(OC)[C@@H](OC(=O)CCN3CCN(CCOCCO)CC3)[C@H](C)O2)[C@H](C)[C@@H](O[C@@H]2O[C@H](C)C[C@H](N(C)C)[C@H]2O)[C@](C)(OC)C[C@@H](C)C(=O)N[C@H](C)[C@@H](O)[C@]1(C)O [Example 18] = 0%

With A549 as the test system, CC[C@H]1OC(=O)[C@H](C)[C@@H](O[C@H]2C[C@@](C)(OC)[C@@H](OC(=O)CCN3CCN(CCCN4CCCCC4)CC3)[C@H](C)O2)[C@H](C)[C@@H](O[C@@H]2O[C@H](C)C[C@H](N(C)C)[C@H]2O)[C@](C)(OC)C[C@@H](C)C(=O)N[C@H](C)[C@@H](O)[C@]1(C)O [Example 22] showed Percentage of inhibition of cell growth of 0%

Continuing:
GET /values?item= CC[C@H]1OC(=O)[C@H](C)[C@@H](O[C@H]2C[C@@](C)(OC)[C@@H](OC(=O)CCN3CCN(CCN(C)C)CC3)[C@H](C)O2)[C@H](C)[C@@H](O[C@@H]2O[C@H](C)C[C@H](N(C)C)[C@H]2O)[C@](C)(OC)C[C@@H](C)C(=O)N[C@H](C)[C@@H](O)[C@]1(C)O [Example 17] &system= A549 returns Percentage of inhibition of cell growth: 2%

Tested on A549, the item CC[C@H]1OC(=O)[C@H](C)[C@@H](O[C@H]2C[C@@](C)(OC)[C@@H](OC(=O)CCN(CC)CC)[C@H](C)O2)[C@H](C)[C@@H](O[C@@H]2O[C@H](C)C[C@H](N(C)C)[C@H]2O)[C@](C)(OC)C[C@@H](C)C(=O)[C@H](C)[C@H]2N(C)C(=O)O[C@]12C [Example 10] showed Percentage of inhibition of cell growth equal to 6%

The observed Percentage of inhibition of cell growth for CC[C@H]1OC(=O)[C@H](C)[C@@H](O[C@H]2C[C@@](C)(OC)[C@@H](OC(=O)CCN(CC)CC)[C@H](C)O2)[C@H](C)[C@@H](O[C@@H]2O[C@H](C)C[C@H](N(C)C)[C@H]2O)[C@](C)(O)C[C@@H](C)CN(C)[C@H](C)[C@@H](O)[C@]1(C)O [Example 48] when tested with A549 stands at 0%

# value of Percentage of inhibition of cell growth, A549, item CC[C@H]1OC(=O)[C@H](C)[C@@H](OC2C[C@@](C)(OC)[C@@H](OC(=O)CCN3CCNCC3)[C@H](C)O2)[C@H](C)[C@@H](OC2O[C@H](C)C[C@H](N(C)C)[C@H]2O)[C@](C)(OC)C[C@@H](C)C(=O)[C@H](C)[C@@H](O)[C@]1(C)O (stereo partly shown) [Example 50] = 10%
